Assay System: Bifunctional protein GlmU (Mycobacterium tuberculosis (strain ATCC 25618 / H37Rv)) (UniProt P9WMN3)
Sequence (P9WMN3 whole entry, looked up): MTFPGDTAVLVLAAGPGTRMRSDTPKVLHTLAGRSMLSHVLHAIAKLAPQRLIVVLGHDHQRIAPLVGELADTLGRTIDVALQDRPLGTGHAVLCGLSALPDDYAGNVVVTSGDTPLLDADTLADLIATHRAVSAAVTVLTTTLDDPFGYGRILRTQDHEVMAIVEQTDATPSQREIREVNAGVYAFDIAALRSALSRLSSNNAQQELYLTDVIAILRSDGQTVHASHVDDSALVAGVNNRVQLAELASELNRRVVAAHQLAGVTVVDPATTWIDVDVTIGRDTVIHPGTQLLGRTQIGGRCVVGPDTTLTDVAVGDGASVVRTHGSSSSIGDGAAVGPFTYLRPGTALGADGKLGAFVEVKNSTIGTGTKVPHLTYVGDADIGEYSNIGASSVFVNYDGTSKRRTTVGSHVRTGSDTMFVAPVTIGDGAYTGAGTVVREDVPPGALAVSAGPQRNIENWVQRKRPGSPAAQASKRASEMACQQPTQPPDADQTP
Assay: inhibition of mycobacterial GlmU enzyme – biochemical, glucosamine-1-phosphate acetyltransferase (AID 1376)
Condition Context: M. tuberculosis GlmU acetyltransferase enzyme assay;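 tested at 30 µM in the primary screen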
The whole screen tested about 220,000 compounds, of which about 530 (0.24%) were called active. No stated cut-off is given here; in the data, active means inhibition above about 13%; inconclusive means no clear call, values can overlap the other calls; inactive means below that. What follows is part of a selection rich in actives, with near analogues and random picks from the rest. Entries with a potency or affinity are not part of this list.
Possible outcomes: active, inactive

[
  {
    "Compound": "Cc1ccc(C)c(Cn2nnc3c(=O)[nH]c(C(=O)NCC4CCCO4)nc32)c1 (configuration not stated)",
    "Answer Label": "inactive"
  },
  {
    "Compound": "O=C(Nc1ccc(Cl)cc1)Nc1ccccc1C(=O)O",
    "Answer Label": "inactive"
  },
  {
    "Compound": "O=C1C(Cl)=C(Nc2ccc(F)cc2)C(=O)N1CCc1ccccc1",
    "Answer Label": "inactive"
  },
  {
    "Compound": "CN(C)C(=O)CSc1ncnc2scc(-c3ccccc3)c12",
    "Answer Label": "inactive"
  },
  {
    "Compound": "O=C(NCC1CCCO1)c1nc2c(nnn2Cc2ccccc2Cl)c(=O)[nH]1 (configuration not stated)",
    "Answer Label": "inactive"
  },
  {
    "Compound": "O=[N+]([O-])c1ccc2[nH]nc(-c3ccccc3)c2c1",
    "Answer Label": "inactive"
  },
  {
    "Compound": "COc1cc(/C=N/n2c(-c3n[nH]c4c3CCC4)n[nH]c2=S)cc(OC)c1O",
    "Answer Label": "inactive"
  },
  {
    "Compound": "CSc1ccccc1NC(=O)Nc1cccc(Cl)c1",
    "Answer Label": "inactive"
  },
  {
    "Compound": "O=C1N=C(N2CCOCC2)S/C1=C1\\C(=O)N(Cc2ccccc2)c2ccccc21",
    "Answer Label": "inactive"
  },
  {
    "Compound": "Nc1ncnc2c1ncn2[C@@H]1O[C@H](CO)[C@@H](O)[C@H]1O",
    "Answer Label": "inactive"
  },
  {
    "Compound": "CCn1c(SCC(=O)c2ccc(Cl)cc2)nnc1-c1cccs1",
    "Answer Label": "inactive"
  },
  {
    "Compound": "Cn1c(=O)n(C)c2cc(NC(=O)c3ccccc3[N+](=O)[O-])c(Br)cc21",
    "Answer Label": "inactive"
  },
  {
    "Compound": "COc1ccc(NC2=C(Cl)C(=O)N(c3ccccc3)C2=O)c(OC)c1",
    "Answer Label": "inactive"
  },
  {
    "Compound": "Cc1nc2c(=O)n(-c3ccc(F)c(Cl)c3)nc(C)c2s1",
    "Answer Label": "inactive"
  },
  {
    "Compound": "Cn1c(SCC(=O)O)nnc1-c1ccc2ncccc2c1",
    "Answer Label": "inactive"
  },
  {
    "Compound": "Cc1ccc(N2C(=O)NC(=O)/C(=C\\c3ccoc3)C2=O)cc1",
    "Answer Label": "inactive"
  },
  {
    "Compound": "Nc1nc(=S)c2ncn(C3OC(CO)C(O)C3O)c2[nH]1 (configuration not stated)",
    "Answer Label": "active"
  },
  {
    "Compound": "Nc1nc(=S)c2ncn(C3CCCC3)c2[nH]1",
    "Answer Label": "inactive"
  },
  {
    "Compound": "CCOc1ccccc1NC1=C(Cl)C(=O)N(c2ccc(OC)cc2)C1=O",
    "Answer Label": "inactive"
  },
  {
    "Compound": "CC(Sc1ncc(C(F)(F)F)cc1Cl)C(=O)NC(N)=O (configuration not stated)",
    "Answer Label": "inactive"
  },
  {
    "Compound": "CCOc1ncccc1C(=O)Nc1nnc(C2CC2)s1",
    "Answer Label": "inactive"
  },
  {
    "Compound": "COc1ccc(N2C(=O)C(Cl)=C(Nc3ccccc3OC)C2=O)cc1",
    "Answer Label": "inactive"
  },
  {
    "Compound": "COc1ccc(-c2ccc(-c3noc(-c4cccc(OC)c4)n3)c(OC)n2)cc1",
    "Answer Label": "active"
  },
  {
    "Compound": "COc1ccc(-c2nnc(SCC(=O)NCc3ccco3)n2C)cc1",
    "Answer Label": "inactive"
  },
  {
    "Compound": "O=C1NC(=O)N(c2ccccc2)C(=O)/C1=C/c1ccoc1",
    "Answer Label": "inactive"
  },
  {
    "Compound": "CCOC(=O)c1[nH]c2ccccc2c1NC(=O)c1ccc2c(c1)OCO2",
    "Answer Label": "inactive"
  },
  {
    "Compound": "COc1ccc(/C=C/C(=O)OCC(=O)NC(=O)NC(C)(C)C)cc1",
    "Answer Label": "inactive"
  }
]
